src = paper PMC8617031

# assayTarget: BCL-2 (Homo sapiens, UniProt P10415)
# Construct: endogenous in cells
# Sequence (P10415 whole entry): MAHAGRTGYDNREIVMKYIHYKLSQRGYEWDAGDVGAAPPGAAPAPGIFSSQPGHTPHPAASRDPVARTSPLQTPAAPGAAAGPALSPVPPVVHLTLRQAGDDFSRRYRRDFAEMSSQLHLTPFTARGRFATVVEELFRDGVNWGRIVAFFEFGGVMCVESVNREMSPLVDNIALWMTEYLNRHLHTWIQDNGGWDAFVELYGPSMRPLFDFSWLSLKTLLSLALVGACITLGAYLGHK
# protocolNotes: BCL-2 degradation by immunoblot in 293T cells
# Type: cell-based
# measurementContext: 293T cells, four concentrations, 16 h; Fig. 2b; read-out: BCL-2 DC50
reportedMetric: DC50 (nM)

compound="Cc1ncsc1-c1ccc([C@H](C)NC(=O)[C@@H]2C[C@@H](O)CN2C(=O)[C@@H](NC(=O)CCCCCCCC(=O)N2CCN(CC3(C)CCC(c4ccc(Cl)cc4)=C(CN4CCN(c5ccc(C(=O)NS(=O)(=O)c6ccc(N[C@H](CCN7CCOCC7)CSc7ccccc7)c(S(=O)(=O)C(F)(F)F)c6)cc5)CC4)C3)CC2)C(C)(C)C)cc1 (stereo partly drawn)" measuredvalue=316
compound="Cc1ncsc1-c1ccc([C@H](C)NC(=O)[C@@H]2C[C@@H](O)CN2C(=O)[C@@H](NC(=O)CCCCCC(=O)N2CCN(CC3(C)CCC(c4ccc(Cl)cc4)=C(CN4CCN(c5ccc(C(=O)NS(=O)(=O)c6ccc(N[C@H](CCN7CCOCC7)CSc7ccccc7)c(S(=O)(=O)C(F)(F)F)c6)cc5)CC4)C3)CC2)C(C)(C)C)cc1 (stereo partly drawn)" measuredvalue=180
compound="Cc1ncsc1-c1ccc([C@H](C)NC(=O)[C@@H]2C[C@@H](O)CN2C(=O)[C@@H](NC(=O)CCCCCCC(=O)N2CCN(CC3(C)CCC(c4ccc(Cl)cc4)=C(CN4CCN(c5ccc(C(=O)NS(=O)(=O)c6ccc(N[C@H](CCN7CCOCC7)CSc7ccccc7)c(S(=O)(=O)C(F)(F)F)c6)cc5)CC4)C3)CC2)C(C)(C)C)cc1 (stereo partly drawn)" measuredvalue=54

---

# protocolNotes: Viability (MTS) of 293T cells
# Format: cell-based, human
# measurementContext: human, 293T cell viability, MTS absorbance 490 as percent of untreated control, mean of three wells, 0.111111 uM, mean of 3 wells, normalised to own plate
reportedMetric: viability at 72 h, 0.111111 µM (%)

chemicalsmiles=CC1(C)CCC(c2ccc(Cl)cc2)=C(CN2CCN(c3ccc(C(=O)NS(=O)(=O)c4ccc(N[C@H](CCN5CCOCC5)CSc5ccccc5)c(S(=O)(=O)C(F)(F)F)c4)cc3)CC2)C1 reportedmetric="viability at 72 h, 0.111111 µM" measuredvalue=113

---

Reported viability at 72 h, 0.00137174 µM by item:
# protocolNotes: Viability (MTS) of 293T cells
# Assay type: cell-based, human
# measurementContext: human
reportedMetric: viability at 72 h, 0.00137174 µM (%)

chemicalsmiles=CC1(C)CCC(c2ccc(Cl)cc2)=C(CN2CCN(c3ccc(C(=O)NS(=O)(=O)c4ccc(N[C@H](CCN5CCOCC5)CSc5ccccc5)c(S(=O)(=O)C(F)(F)F)c4)cc3)CC2)C1 reportedmetric="viability at 72 h, 0.00137174 µM" measuredvalue=96.2
chemicalsmiles=Cc1ncsc1-c1ccc([C@H](C)NC(=O)[C@@H]2C[C@@H](O)CN2C(=O)[C@@H](NC(=O)CCCCCC(=O)N2CCN(CC[C@H](CSc3ccccc3)Nc3ccc(S(=O)(=O)NC(=O)c4ccc(N5CCN(CC6=C(c7ccc(Cl)cc7)CCC(C)(C)C6)CC5)cc4)cc3S(=O)(=O)C(F)(F)F)CC2)C(C)(C)C)cc1 reportedmetric="viability at 72 h, 0.00137174 µM" measuredvalue=106
